Values from ChEMBL document CHEMBL1811886

# study.system: Histamine H3 receptor (Rattus norvegicus, UniProt Q9QYN8)
# Sequence (Q9QYN8 whole entry): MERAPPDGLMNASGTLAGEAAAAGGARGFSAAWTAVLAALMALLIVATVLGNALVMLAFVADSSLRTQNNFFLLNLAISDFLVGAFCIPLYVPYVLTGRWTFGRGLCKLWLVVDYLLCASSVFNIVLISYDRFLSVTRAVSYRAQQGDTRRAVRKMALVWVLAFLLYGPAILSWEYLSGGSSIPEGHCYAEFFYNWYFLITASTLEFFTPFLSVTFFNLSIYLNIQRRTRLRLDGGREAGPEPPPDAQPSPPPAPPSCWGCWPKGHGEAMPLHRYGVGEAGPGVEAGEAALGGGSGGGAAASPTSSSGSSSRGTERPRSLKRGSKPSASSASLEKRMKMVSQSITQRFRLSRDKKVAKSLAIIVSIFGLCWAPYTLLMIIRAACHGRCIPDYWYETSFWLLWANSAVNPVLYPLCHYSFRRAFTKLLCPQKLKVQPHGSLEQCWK
# assay.method.text: Displacement of [3H]NAMH from rat histamine H3 receptor expressed in CHO cells
# Format: cell-based
pKi: −log10 of the molar value.
measured.metric: pKi

>>> value_reported("CC(C)n1nc(-c2ccc(OCCCN3CCC[C@H]3C)cc2)ccc1=O")
8.12

[1] O=c1ccc(-c2ccc(OCCCN3CCCCC3)cc2)n[nH]1
[2] C[C@@H]1CCCN1CCCOc1ccc(-c2ccc(=O)[nH]n2)cc1
[3] Cn1nc(-c2ccc(OCCCN3CCC[C@@H]3CO)cc2)ccc1=O
Task for the reader: rank each entry by its pKi, from the minimum upward. List each label, following the requested order.
3, 1, 2

###

# assay.method.text: Terminal half life in Beagle dog at 3 mg/kg, po after 6 to 24 hrs by LC-MS/MS analysis
# Format: ADME, organism-based, Canis lupus familiaris
# Parameters: dose 3 mg/kg, route oral
# run.conditions: in vivo, read-out: beta t1/2 (converted)
measured.metric: half-life (h)
Provide only the numeric value, understood in h.

Which half-life is reported for this compound? C[C@@H]1CCCN1CCCOc1ccc(-c2ccc(=O)[nH]n2)cc1.Cl [IRDABISANT HYDROCHLORIDE]
2.7

###

# assay.method.text: Systemic clearance in fasted Sprague-Dawley rat at 1 mg/kg, iv after 6 to 24 hrs by LC-MS/MS analysis
# Type: ADME, organism-based
# Design: dose 1 mg/kg, route intravenous
# run.conditions: in vivo
measured.metric: clearance (mL/min/kg)

Here are 6 molecules together with their reported answers.
>>> value_reported("C[C@@H]1CCCN1CCCOc1ccc(-c2cn[nH]c(=O)c2)cc1")
9.6
>>> value_reported("Cn1nc(-c2ccc(OCCCN3CCC[C@H]3CO)cc2)ccc1=O")
90
>>> value_reported("C[C@@H]1CCCN1CCCOc1ccc(-c2ccc(=O)n(Cc3ccccc3)n2)cc1")
46
>>> value_reported("C[C@@H]1CCCN1CCCOc1ccc(-c2ccc(=O)[nH]n2)cc1.Cl [IRDABISANT HYDROCHLORIDE]")
42
>>> value_reported("CC(C)n1nc(-c2ccc(OCCCN3CCC[C@H]3C)cc2)ccc1=O")
258
>>> value_reported("C[C@@H]1CCCN1CCCOc1ccc(-c2ccc(=O)n(C)n2)cc1")
45

[1] O=c1ccc(-c2ccc(OCCCN3CCCCC3)cc2)n[nH]1
[2] Cn1nc(-c2ccc(OCCCN3CCCCC3)cc2)ccc1=O
Quick check, higher clearance between 1 and 2 ? Your answer should be the label of the entry you select.
2

[I] C[C@@H]1CCCN1CCCOc1ccc(-c2ccc(=O)n(-c3ccccc3)n2)cc1
[II] CCn1nc(-c2ccc(OCCCN3CCC[C@H]3C)cc2)ccc1=O
[III] C[C@@H]1CCCN1CCc1cc2cc(-c3ccc(C#N)cc3)ccc2o1
Rank by clearance (largest to smallest). Return value: ordered labels per request.
II, III, I
(II: 238 mL/min/kg, III: 39 mL/min/kg, I: 11.7 mL/min/kg)

###

# Test system: Canis familiaris
# assay.method.text: Cmax in Beagle dog at 3 mg/kg, po after 6 to 24 hrs by LC-MS/MS analysis
# Format: ADME, organism-based, Canis lupus familiaris
# Parameters: dose 3 mg/kg, route oral
# run.conditions: in vivo
measured.metric: Cmax (ng/mL)
Give the quantity in ng/mL, number only.

Tell me reported Cmax for C[C@@H]1CCCN1CCCOc1ccc(-c2ccc(=O)[nH]n2)cc1.Cl [IRDABISANT HYDROCHLORIDE] , tested with Canis familiaris.
230
